Where do the numbers come from? From patent EP3620472A1.

Target: human PAI-1 (human, UniProt P05121 24-402)
Sequence (P05121 24-402 limits assumed, form in doubt): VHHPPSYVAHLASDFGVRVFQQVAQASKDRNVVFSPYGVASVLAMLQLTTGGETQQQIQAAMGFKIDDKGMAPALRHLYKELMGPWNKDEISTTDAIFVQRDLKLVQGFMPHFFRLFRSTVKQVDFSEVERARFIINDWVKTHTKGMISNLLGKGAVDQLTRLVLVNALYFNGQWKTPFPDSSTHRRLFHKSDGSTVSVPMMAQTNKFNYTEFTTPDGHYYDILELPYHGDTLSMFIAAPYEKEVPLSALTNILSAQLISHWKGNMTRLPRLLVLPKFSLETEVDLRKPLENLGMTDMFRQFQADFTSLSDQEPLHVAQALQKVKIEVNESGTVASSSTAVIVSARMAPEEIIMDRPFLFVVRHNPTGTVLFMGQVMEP
Experiment: cell-based or functional assay
Assignment: determine reported uPA-PAI-1 complex ELISA IC50 for the given binders.
One number for each entry, in nM.

Solved cases below.
Binder | Measurement Type | Unit String | Value Measured
A44-hv13 (antibody, V domains shown) VH: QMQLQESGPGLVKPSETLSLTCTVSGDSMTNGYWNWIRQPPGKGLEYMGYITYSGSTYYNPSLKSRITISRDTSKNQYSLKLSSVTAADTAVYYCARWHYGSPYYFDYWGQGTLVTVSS VL: DIKMTQSPSSLSASVGDRVTITCKASQDINSYLSWLQQKPGKSPKTLIYRAQRSVEGVPSRFSGSGSGQDYSLTISSLQPEDLGIYYCLQYDEFPPTFGGGTKLEIK | uPA-PAI-1 complex ELISA IC50 | nM | 0.166
A44-hv12 (antibody, V domains shown) VH: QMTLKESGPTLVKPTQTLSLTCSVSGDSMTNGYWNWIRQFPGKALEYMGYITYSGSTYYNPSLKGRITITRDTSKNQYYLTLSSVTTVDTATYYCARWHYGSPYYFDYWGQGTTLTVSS VL: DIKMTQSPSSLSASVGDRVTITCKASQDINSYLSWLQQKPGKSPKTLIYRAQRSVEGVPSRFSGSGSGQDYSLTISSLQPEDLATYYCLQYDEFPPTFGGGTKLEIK | uPA-PAI-1 complex ELISA IC50 | nM | 0.114
A44-hv11 (antibody, V domains shown, constant regions only as pictures; also called A44V11; A44v11) VH: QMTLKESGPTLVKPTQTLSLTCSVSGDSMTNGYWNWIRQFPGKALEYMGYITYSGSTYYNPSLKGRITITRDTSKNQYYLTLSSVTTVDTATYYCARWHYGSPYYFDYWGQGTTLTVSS VL: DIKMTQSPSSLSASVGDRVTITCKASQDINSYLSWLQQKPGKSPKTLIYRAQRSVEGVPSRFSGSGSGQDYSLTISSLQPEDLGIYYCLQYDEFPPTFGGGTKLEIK | uPA-PAI-1 complex ELISA IC50 | nM | 0.131

Note: attention shifts to another entry.
IN: uPA-PAI-1 complex ELISA IC50 for A44-hv14 (antibody, V domains shown) VH: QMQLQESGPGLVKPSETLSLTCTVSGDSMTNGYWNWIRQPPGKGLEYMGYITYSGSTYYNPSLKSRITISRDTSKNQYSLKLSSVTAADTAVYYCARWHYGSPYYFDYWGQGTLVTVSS VL: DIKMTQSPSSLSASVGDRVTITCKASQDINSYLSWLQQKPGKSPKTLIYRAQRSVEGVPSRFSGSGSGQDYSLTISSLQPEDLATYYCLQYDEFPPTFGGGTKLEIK ?
OUT: 0.0563
